Experiment: AUC (0 to T) in human at 10 mg, po after 192 hrs
Format: ADME, organism-based
Design: dose 10 mg, time < 192 hr, route oral
Conditions: plasma
Measure: AUC(0-t) at 192 h (ng·h/mL)
Provide only the numeric value, understood in ng·h/mL.

Req: So what's the measured AUC(0-t) at 192 h for this one? COc1ccc(OC(=O)N(CC(=O)O)Cc2ccc(OCCc3nc(-c4ccccc4)oc3C)cc2)cc1.Cl [MURAGLITAZAR CHLORIDE]
Resp: 12000

---

Test: Half life in Beagle dog at 2 mg/kg, po after 12 hrs
Assay type: ADME, organism-based, Canis lupus familiaris
Parameters: dose 2 mg/kg, route oral
Settings: in vivo
Measure: half-life

Req: So what's the measured half-life for this one? COc1ccc(OC(=O)N(CC(=O)O)Cc2ccc(OCCc3nc(-c4ccccc4)oc3C)cc2)cc1.Cl [MURAGLITAZAR CHLORIDE]
Resp: 5.7 h
